# Assay Target: sigma-2 receptor (Cavia porcellus)
# Construct: their whole brains (without cerebellum) were rapidly removed and homogenized; from tissue; host or cells: guinea pig (male Hartley) whole brain without cerebellum, membrane homogenate
# Measurement Notes: Sigma-2 binding assay ([3H]DTG in the presence of (+)-SKF10047)
# Test Parameters: inhibition % at 10 nM; guinea pig brain membranes, [3H]DTG; Table II; read-out: Sigma 2 Inhib. %
Measurement Name: inhibition at 0.01 µM (%)
Report only the number, with the unit % understood.

Worked cases, inhibition at 0.01 µM given:
Molecule	Unit Tag	inhibition at 0.01 µM
COc1ccc(C(=O)C2CCN(CCC(N)c3ccccc3)CC2)cc1 (stereo not drawn)	%	30.9
O=CNC(Cc1ccc(Cl)c(Cl)c1)CN1CCCCCC1 (stereo not drawn)	%	37.8
NC(Cc1ccc(Cl)c(Cl)c1)CN1CCC(Cc2ccccc2)CC1 (stereo not drawn)	%	48.3
NC(CCN1CCC(C(=O)c2ccc(F)cc2)CC1)c1ccccc1 (stereo not drawn)	%	57.3

## Input Given CC(C)(C)c1ccc(CC(N)CCN2CCC(Cc3ccccc3)CC2)cc1 (stereo not drawn) , respond with its inhibition at 0.01 µM.
## Output 24.3

## Input Given NC(Cc1ccc(Cl)c(Cl)c1)CN1CCC(C(=O)c2ccccc2)CC1 (stereo not drawn) , respond with its inhibition at 0.01 µM.
## Output 39.6

----------
Entries and their inhibition at 0.01 µM
# Assay Target: sigma-2 receptor (Cavia porcellus, UniProt H0V073)
# Construct: their whole brains (without cerebellum) were rapidly removed and homogenized; from tissue; host or cells: guinea pig (male Hartley) whole brain without cerebellum, membrane homogenate
# Sequence (H0V073 1-176): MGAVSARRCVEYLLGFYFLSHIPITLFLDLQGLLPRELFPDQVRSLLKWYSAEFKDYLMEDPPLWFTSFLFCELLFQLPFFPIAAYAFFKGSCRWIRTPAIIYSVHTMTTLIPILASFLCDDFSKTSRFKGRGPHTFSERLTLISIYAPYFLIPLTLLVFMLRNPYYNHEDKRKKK
# Measurement Notes: Sigma-2 binding assay ([3H]DTG in the presence of (+)-SKF10047)
# Test Parameters: inhibition % at 10 nM; guinea pig brain membranes, [3H]DTG; Table II; read-out: Sigma 2 Inhib. %
Report only the number, with the unit % understood.

Worked cases, inhibition at 0.01 µM given:
Compound	Unit Tag	inhibition at 0.01 µM
NC(CCN1CCC(C(=O)c2ccc(Cl)cc2)CC1)c1ccccc1 (stereo not drawn)	%	43.7
NC(CCN1CCC(Cc2ccccc2)CC1)c1ccccc1 (stereo not drawn)	%	39.7
NC(Cc1ccc(Cl)cc1)CN1CCC(C(=O)c2ccccc2)CC1 (stereo not drawn)	%	50
CNC(CCN1CCC(C(=O)c2ccc(F)cc2)CC1)c1ccccc1 (stereo not drawn)	%	50.5
NC(CCN1CCC(C(=O)c2ccccc2)CC1)c1ccccc1 (stereo not drawn)	%	48.3

## Input Given Clc1ccc(CCNC(CCN2CCC(Cc3ccccc3)CC2)c2ccccc2)cc1Cl (stereo not drawn) , respond with its inhibition at 0.01 µM.
## Output 22.6
